Examples of compounds with documented Percent Effect follow.
Tested on: Trypanosoma brucei
Assay: Trypanosoma brucei 72 hour study
Assay type: functional, organism-based
Parameters: scale not given: in the data most compounds retested in dose-response had high values
Conditions: 30.3 µM; […]
Screen size: about 66,000 compounds; about 960 (1.5%) showed an effect of 50% or more. The list comes from a sample in which strong results are over-represented; it also holds close analogues and randomly drawn compounds.
Just the number plus its unit, please.

>  <COMPOUND>
COc1ccccc1OCCc1cc(C2CCNC2)n[nH]1.Cl.Cl (stereo not drawn)

>  <TARGET_OR_TEST_SYSTEM>
Trypanosoma brucei

>  <REPORTED>
-27.23%

$$$$
>  <COMPOUND>
Cc1nc(C2(O)CCCNCC2)sc1CCOc1ccccc1.Cl (stereo not drawn)

>  <TARGET_OR_TEST_SYSTEM>
Trypanosoma brucei

>  <REPORTED>
41.97%

$$$$

For the record `CN(C)C(=O)Cc1ccccc1NCc1cccc(F)c1F` , what value of Percent Effect is listed for Trypanosoma brucei?
97.11%

Same thing, different compound: `CCCc1cc(C(=O)N2C[C@H](O)[C@@H](N3CCCC3)C2)ccn1`
-5.682%

Same thing, different compound: `N[C@@H]1CCC[C@@H](Oc2ccc(F)cc2Oc2cccc(F)c2)[C@@H]1O`
3.71%

Same thing, different compound: `Cc1cc(Oc2ccc(NC(=O)C3CC3)cc2)cc(C2CCNCC2)n1.Cl`
99.81%

Same thing, different compound: `CN(C)C(=O)Cc1ccccc1NCc1cc(C#N)ccc1F`
-2.182%

Same thing, different compound: `CNCc1cc(F)ccc1Oc1ccc(F)cc1`
-17.97%

Same thing, different compound: `Cc1ncccc1OC1(C(=O)NCCNc2ccccc2)CCNCC1`
0.199%

Same thing, different compound: `Cc1ccc(N[C@@H]2CN(Cc3cc(C)on3)C[C@@H]3CCCO[C@@H]32)nn1.O=C(O)C(F)(F)F.O=C(O)C(F)(F)F`
-34.05%
